This collection of values is drawn from patent US9771341B2.

Target: MAGL (Mus musculus)
Construct: Proteomes (mouse brain membrane fraction or cell lysates); from tissue; host or cells: mouse brain membrane fraction (or unspecified cell lysates)
Sequence (O35678 1-303): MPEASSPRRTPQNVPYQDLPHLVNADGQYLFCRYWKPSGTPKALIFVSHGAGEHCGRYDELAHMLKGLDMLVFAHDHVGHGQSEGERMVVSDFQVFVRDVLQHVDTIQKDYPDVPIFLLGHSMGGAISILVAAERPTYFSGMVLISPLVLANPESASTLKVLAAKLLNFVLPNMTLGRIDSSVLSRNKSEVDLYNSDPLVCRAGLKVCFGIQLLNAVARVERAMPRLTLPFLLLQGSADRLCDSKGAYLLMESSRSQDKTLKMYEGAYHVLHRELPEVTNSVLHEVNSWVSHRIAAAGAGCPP
Assay: In vitro competitive activity-based protein profiling (mouse), MAGL
Type: biochemical
Settings: mouse brain membrane fraction or cell lysates, 30 min preincubation at 37° C, FP-Rh probe

compound: CC(=O)NC1CCN(Cc2cccc(CN3CCN(C(=O)OC(C(F)(F)F)C(F)(F)F)CC3)c2C)CC1
test target: MAGL (Mus musculus)
IC50: 100 to 1000 nM

compound: O=C(OC(C(F)(F)F)C(F)(F)F)N1CCN(Cc2cc(Cl)cc(CN3CCCC3)c2)CC1
test target: MAGL (Mus musculus)
IC50: 100 to 1000 nM

compound: CC(=O)N[C@H]1CCN(Cc2cccc(CN3CCN(C(=O)OC(C(F)(F)F)C(F)(F)F)CC3)c2C)C1
test target: MAGL (Mus musculus)
IC50: 100 to 1000 nM

compound: Cc1c(CN2CCN(C(=O)OC(C(F)(F)F)C(F)(F)F)CC2)cccc1CN1CCN(S(C)(=O)=O)CC1
test target: MAGL (Mus musculus)
IC50: < 100 nM

compound: Cc1c(CN2CCC(NS(C)(=O)=O)CC2)cccc1CN1CCN(C(=O)OC(C(F)(F)F)C(F)(F)F)CC1
test target: MAGL (Mus musculus)
IC50: < 100 nM

compound: Cc1cccc(CN2CCN(C(=O)OC(C(F)(F)F)C(F)(F)F)CC2)c1N1CCC(NS(C)(=O)=O)CC1
test target: MAGL (Mus musculus)
IC50: < 100 nM

compound: NC(=O)C1CCN(c2cc(C(F)(F)F)ccc2CN2CCN(C(=O)OC(C(F)(F)F)C(F)(F)F)CC2)CC1
test target: MAGL (Mus musculus)
IC50: < 100 nM

compound: O=C(OC(C(F)(F)F)C(F)(F)F)N1CCN(Cc2ccc(Cl)cc2N2CC[C@H](N3CCCS3(=O)=O)C2)CC1
test target: MAGL (Mus musculus)
IC50: < 100 nM

compound: CS(=O)(=O)N[C@H]1CCN(c2cc(Cl)ccc2CN2CCN(C(=O)OC(C(F)(F)F)C(F)(F)F)CC2)C1
test target: MAGL (Mus musculus)
IC50: < 100 nM

compound: Cc1ccc(CN2CCN(C(=O)OC(C(F)(F)F)C(F)(F)F)CC2)c(N2CC[C@H](CF)C2)c1
test target: MAGL (Mus musculus)
IC50: < 100 nM

compound: CCOC(=O)C1CCCN1c1cc(CN2CCN(C(=O)OC(C(F)(F)F)C(F)(F)F)CC2)cc(C(F)(F)F)c1 (stereo not drawn)
test target: MAGL (Mus musculus)
IC50: < 100 nM

compound: Cc1c(CN2CCN(C(=O)OC(C(F)(F)F)C(F)(F)F)CC2)cccc1CN1CCCC[C@H]1C
test target: MAGL (Mus musculus)
IC50: 100 to 1000 nM

compound: O=C(OC(C(F)(F)F)C(F)(F)F)N1CCN(Cc2ccc(C(F)(F)F)c(N3CC4CCC(C3)O4)c2)CC1
test target: MAGL (Mus musculus)
IC50: < 100 nM

compound: COc1c(CN2CCN(C(C)=O)CC2)cccc1CN1CCN(C(=O)OC(C(F)(F)F)C(F)(F)F)CC1
test target: MAGL (Mus musculus)
IC50: 100 to 1000 nM

compound: O=C(OC(C(F)(F)F)C(F)(F)F)N1CCN(Cc2ccc(CN3CCCCC3)cc2OC(F)(F)F)CC1
test target: MAGL (Mus musculus)
IC50: 100 to 1000 nM

compound: Cc1c(CN2CCN(C(=O)OC(C(F)(F)F)C(F)(F)F)CC2)cccc1CN1CCC(F)(F)CC1
test target: MAGL (Mus musculus)
IC50: < 100 nM

compound: O=C(O)C1CN(c2cc(C(F)(F)F)ccc2CN2CCN(C(=O)OC(C(F)(F)F)C(F)(F)F)CC2)CCO1 (stereo not drawn)
test target: MAGL (Mus musculus)
IC50: < 100 nM

compound: NC(=O)C1CCN(c2cc(Cl)ccc2CN2CCN(C(=O)OC(C(F)(F)F)C(F)(F)F)CC2)CC1
test target: MAGL (Mus musculus)
IC50: < 100 nM

compound: O=C(O)C(=O)c1cc(C(F)(F)F)ccc1CN1CCN(C(=O)OC(C(F)(F)F)C(F)(F)F)CC1
test target: MAGL (Mus musculus)
IC50: < 100 nM

compound: O=C(OC(C(F)(F)F)C(F)(F)F)N1CCN(Cc2cc(N3CCC(CO)C3)cc(C(F)(F)F)c2)CC1 (stereo not drawn)
test target: MAGL (Mus musculus)
IC50: < 100 nM

compound: O=C(OC(C(F)(F)F)C(F)(F)F)N1CCN(Cc2ccc(C(F)(F)F)c(N3CCC(CO)CC3)c2)CC1
test target: MAGL (Mus musculus)
IC50: < 100 nM
